Reference for the values: ChEMBL document CHEMBL3297656

# Target Entity: Amine oxidase [flavin-containing] A (Homo sapiens, UniProt P21397)
# Sequence (P21397 whole entry): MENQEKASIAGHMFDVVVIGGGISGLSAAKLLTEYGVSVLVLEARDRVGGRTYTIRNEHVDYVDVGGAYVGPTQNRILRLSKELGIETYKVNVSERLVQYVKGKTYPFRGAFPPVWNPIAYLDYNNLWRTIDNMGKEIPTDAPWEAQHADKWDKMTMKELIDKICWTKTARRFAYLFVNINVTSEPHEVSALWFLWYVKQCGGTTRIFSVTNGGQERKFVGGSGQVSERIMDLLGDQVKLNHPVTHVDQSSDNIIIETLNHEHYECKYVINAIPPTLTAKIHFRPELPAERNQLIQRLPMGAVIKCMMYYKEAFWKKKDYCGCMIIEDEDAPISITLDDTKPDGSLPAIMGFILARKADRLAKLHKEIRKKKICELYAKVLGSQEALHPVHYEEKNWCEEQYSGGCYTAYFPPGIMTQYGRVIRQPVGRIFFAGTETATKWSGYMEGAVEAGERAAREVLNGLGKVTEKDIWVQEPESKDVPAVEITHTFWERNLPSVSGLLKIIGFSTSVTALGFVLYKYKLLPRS
# Test Name: Inhibition of human recombinant MAO-A assessed as H2O2 production using p-tyramine substrate by fluorimetric method
Labelling: IC50 reported below 40 µM becomes 1.0; at or above becomes 0.0.

Solved entries:
>>> class("CC(C)NC(=O)c1cc2cc(Br)cc(Br)c2oc1=O")
1.0
>>> class("O=C(SCc1ccco1)c1cc2cc([N+](=O)[O-])ccc2oc1=O")
0.0
>>> class("CCCCCCN(CCCCCC)C(=O)c1cc2cc(Br)cc(Br)c2oc1=O")
1.0
>>> class("CC(C)NC(=O)c1cc2ccccc2oc1=O")
1.0
>>> class("CCC(C)NC(=O)c1cc2cc(Br)cc(Br)c2oc1=O (stereo not drawn)")
0.0

Now examine the next entry.
Problem: Please determine if "O=C(Sc1ccc(Br)cc1)c1cc2ccccc2oc1=O" is below 40 µM in terms of IC50.
Result: 1.0

---

# Target Entity: UniProt:P21397
# Test Name: Inhibition of human recombinant MAO-A assessed as H2O2 production using p-tyramine substrate at 60 uM by fluorimetric method
Result Type: inhibition (INH)

>>> value_measured("CCC(C)NC(=O)c1cc2cc([N+](=O)[O-])ccc2oc1=O (configuration not stated)")
"Not Active"
>>> value_measured("O=C(Sc1ccc(Br)cc1)c1cc2cc(Br)c(Br)cc2oc1=O")
"Not Active"
>>> value_measured("CCCCSC(=O)c1cc2cc([N+](=O)[O-])ccc2oc1=O")
"Not Active"
>>> value_measured("O=C(Sc1ccc(Br)cc1)c1cc2cc(C(F)(F)F)ccc2oc1=O")
"Not Active"

Problem: Tell me the measured inhibition (INH) of "CCCCSC(=O)c1cc2cc(Br)c(Br)cc2oc1=O" , please.
Result: Not Active

Problem: Tell me the measured inhibition (INH) of "CCCCSC(=O)c1cc2ccccc2oc1=O" , please.
Result: Not Active

Problem: Tell me the measured inhibition (INH) of "O=C(Sc1ncccn1)c1cc2ccccc2oc1=O" , please.
Result: Not Active

---

# Target Entity: Amine oxidase [flavin-containing] B (Homo sapiens, UniProt P27338)
# Sequence (P27338 whole entry): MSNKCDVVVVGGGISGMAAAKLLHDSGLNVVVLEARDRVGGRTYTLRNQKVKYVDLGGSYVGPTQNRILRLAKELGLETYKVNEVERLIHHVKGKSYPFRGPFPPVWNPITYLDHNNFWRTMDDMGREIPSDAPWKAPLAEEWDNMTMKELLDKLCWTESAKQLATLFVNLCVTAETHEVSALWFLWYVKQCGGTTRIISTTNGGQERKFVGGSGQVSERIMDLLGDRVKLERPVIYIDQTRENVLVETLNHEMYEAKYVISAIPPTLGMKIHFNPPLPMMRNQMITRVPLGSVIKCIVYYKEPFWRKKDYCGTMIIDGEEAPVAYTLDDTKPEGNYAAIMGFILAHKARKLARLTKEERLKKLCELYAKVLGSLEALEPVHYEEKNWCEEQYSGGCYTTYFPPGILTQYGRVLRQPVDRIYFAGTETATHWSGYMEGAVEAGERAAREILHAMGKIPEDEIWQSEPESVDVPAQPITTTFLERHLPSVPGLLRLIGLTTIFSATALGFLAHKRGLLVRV
# Test Name: Inhibition of human recombinant MAO-B assessed as H2O2 production using p-tyramine substrate by fluorimetric method
Labelling: IC50 reported below 20 µM becomes 1.0; at or above becomes 0.0.

Solved entries:
>>> class("O=C(Sc1ccc(Br)cc1)c1cc2ccccc2oc1=O")
1.0
>>> class("O=C(Sc1ccc(Br)cc1)c1cc2cc([N+](=O)[O-])ccc2oc1=O")
0.0
>>> class("O=C(Sc1ncccn1)c1cc2ccccc2oc1=O")
1.0

Problem: Please determine if "CCCCSC(=O)c1cc2ccccc2oc1=O" is below 20 µM in terms of IC50.
Result: 1.0

Problem: Please determine if "O=C(Sc1ccc(Br)cc1)c1cc2cc(Br)c(Br)cc2oc1=O" is below 20 µM in terms of IC50.
Result: 0.0

Problem: Please determine if "O=C(SCc1ccco1)c1cc2ccccc2oc1=O" is below 20 µM in terms of IC50.
Result: 1.0

Problem: Please determine if "CC(C)NC(=O)c1cc2cc(Br)cc(Br)c2oc1=O" is below 20 µM in terms of IC50.
Result: 1.0

Problem: Please determine if "CC(C)(C)NC(=O)c1cc2ccccc2oc1=O" is below 20 µM in terms of IC50.
Result: 1.0

Problem: Please determine if CCC(C)NC(=O)c1cc2cc(Br)cc(Br)c2oc1=O (centres undefined) is below 20 µM in terms of IC50.
Result: 0.0

---

# Species: Homo sapiens
# Test Name: Selectivity index, ratio of IC50 for human recombinant MAO-A to IC50 for human recombinant MAO-B
Labelling: Ratio IC50 reported below 4 becomes True; at or above becomes False.

Solved entries:
>>> class("CCC(C)NC(=O)c1cc2cc([N+](=O)[O-])ccc2oc1=O (centres undefined)")
"True"
>>> class("O=C(Sc1ccc(Br)cc1)c1cc2cc(Br)c(Br)cc2oc1=O")
"True"
>>> class("CCC(C)NC(=O)c1cc2cc(Br)cc(Br)c2oc1=O (centres undefined)")
"True"
>>> class("CCCCCCN(CCCCCC)C(=O)c1cc2cc(Br)cc(Br)c2oc1=O")
"True"

Problem: Please determine if "O=C(Sc1ccc(Br)cc1)c1cc2cc([N+](=O)[O-])ccc2oc1=O" is below 4 in terms of Ratio IC50.
Result: True

Problem: Please determine if "CC(C)NC(=O)c1cc2cc(Br)cc(Br)c2oc1=O" is below 4 in terms of Ratio IC50.
Result: True

---

# Target Entity: Amine oxidase [flavin-containing] B (Homo sapiens, UniProt P27338)
# Sequence (P27338 whole entry): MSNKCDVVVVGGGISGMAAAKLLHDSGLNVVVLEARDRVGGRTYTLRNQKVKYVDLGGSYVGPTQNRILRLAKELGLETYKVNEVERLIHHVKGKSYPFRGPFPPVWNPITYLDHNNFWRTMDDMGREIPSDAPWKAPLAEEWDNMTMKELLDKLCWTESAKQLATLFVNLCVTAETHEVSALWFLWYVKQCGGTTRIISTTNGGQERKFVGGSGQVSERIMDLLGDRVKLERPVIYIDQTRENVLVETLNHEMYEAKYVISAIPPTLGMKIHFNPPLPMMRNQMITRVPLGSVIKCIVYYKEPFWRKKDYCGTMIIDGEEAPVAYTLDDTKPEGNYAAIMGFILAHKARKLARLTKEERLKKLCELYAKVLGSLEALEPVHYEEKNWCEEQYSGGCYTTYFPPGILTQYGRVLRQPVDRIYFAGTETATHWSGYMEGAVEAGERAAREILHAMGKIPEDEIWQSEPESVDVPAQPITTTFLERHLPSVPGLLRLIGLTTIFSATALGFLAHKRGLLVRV
# Test Name: Inhibition of human recombinant MAO-B assessed as H2O2 production using p-tyramine substrate by fluorimetric method
Result Type: pIC50
Scale: negative log10 of molar concentration, which is what pIC50 denotes.

>>> value_measured("CCC(C)NC(=O)c1cc2cc([N+](=O)[O-])ccc2oc1=O (stereo not given)")
4.76
>>> value_measured("CCCCCCN(CCCCCC)C(=O)c1cc2cc(Br)cc(Br)c2oc1=O")
5.13
>>> value_measured("O=C(SCc1ccco1)c1cc2cc([N+](=O)[O-])ccc2oc1=O")
4.88
>>> value_measured("O=C(SCc1ccco1)c1cc2cc(Br)c(Br)cc2oc1=O")
5.25

Let's switch to this compound now.
Problem: Tell me the measured pIC50 of "O=C(Sc1ccc(Br)cc1)c1cc2cc(C(F)(F)F)ccc2oc1=O" , please.
Result: 4.82
